Tested on: SW-620 colon
Assay: NCI-60 one-dose screen, 48 h (100 = growth as untreated, 0 = no growth, -100 = all killed)
Settings: 10 µM unless noted
Protocol: Growth inhibition of the SW-620 human tumor cell line is measured as a screen for anti-cancer activity. Cells are grown in 96 well plates and exposed to the test compound for 48 hours. Compounds are tested at a single concentration, which is 10^-5 M for most compounds. The reported endpoint is percent growth (GI% or GIPRCNT), where numbers from 0 - 100% represent growth inhibition, and numbers from -100% - 0 represent cell death. For example, a value of 40 represents 60% growth inhibition. […]
Compounds without any hit were thinned out: in the full panel of roughly 83,000, 20% have a hit.
Use 10% as the dividing line for growth, with the line itself on the Condition met side and lower values as Condition not met.

CCn1cc(-c2ccnc3[nH]c(-c4cccc(CN(C)C)c4)cc23)c(-c2ccc(NC(=O)N(C)C)cc2)n1; Condition not met
Cc1ncc(-c2ccnc(Nc3ccc(S(C)(=O)=O)cc3)n2)n1C(C)C; Condition not met
CN(C)C/C=C/C(=O)Nc1cc2c(Nc3ccc(F)c(Cl)c3)ncnc2cc1O[C@H]1CCOC1; Condition not met
COc1cc2nccc(Oc3ccc(NC(=O)Nc4cc(C)on4)c(Cl)c3)c2cc1OC; Condition met

Q: Exam item: decide whether the reported growth for FC(F)c1nc2ccccc2n1-c1nc(N2CCOCC2)nc(N2CCOCC2)n1 is at least 10%.
A: Condition met

----------
Test system: IGROV1 ovarian
Experiment: NCI-60 one-dose screen, 48 h (100 = growth as untreated, 0 = no growth, -100 = all killed)
Settings: 10 µM unless noted
The panel holds about 83,000 compounds, 20% with a hit somewhere; the sample as a whole holds those more often.
Entries and their growth
Quick reminder: number only, in %, skip the unit.

Here is how some compounds turned out for growth.
CCN(CCN(C)C)C(=O)CNCc1cc(C(N)=O)ccn1; 109
CCN(CC)CCN1C(=O)c2cccc3c(-c4ccc5c(c4)ncn5C4CCCCC4)ccc(c23)C1=O; 28.4
CCc1cnn2c(NCc3ccc[n+]([O-])c3)cc(N3CCCC[C@H]3CCO)nc12; 5.6
Cc1nc(Nc2n[nH]c3c2CN(C(=O)N[C@H](CN(C)C)c2ccccc2)C3(C)C)c2sccc2n1; -17.9
Cc1cc(N(CCNc2ccnc3cc(Cl)ccc23)Cc2ccc3c(c2)OCO3)nc(N2CCCC2)n1; -14.4
CC(=O)C(C(C)=O)C(c1ccccc1)C(C(C)=O)C(C)=O; 104
COC(=O)CC[C@@H](C)[C@H]1CC[C@H]2C3CC[C@@H]4C[C@@H]5CC[C@]4(C)[C@@]3(O5)[C@H](Br)[C@@H](Br)[C@]12C (some centres undefined); 103
Cc1nn(-c2nc3ccccc3[nH]2)c2c1C(c1ccc(OCc3ccc(F)cc3)cc1)CC(=O)N2 (centres undefined); 54.6

Now for another entry.
Q: What does the record list as growth for CCOc1ccc(N=C(C)Nc2ccc(OCC)cc2)cc1 ?
A: 106

----------
Tested on: SNB-19 CNS
Assay: NCI-60 one-dose screen, 48 h (100 = growth as untreated, 0 = no growth, -100 = all killed)
Conditions: 10 µM unless noted
Description: Growth inhibition of the SNB-19 human tumor cell line is measured as a screen for anti-cancer activity. Cells are grown in 96 well plates and exposed to the test compound for 48 hours. Compounds are tested at a single concentration, which is 10^-5 M for most compounds. The reported endpoint is percent growth (GI% or GIPRCNT), where numbers from 0 - 100% represent growth inhibition, and numbers from -100% - 0 represent cell death. For example, a value of 40 represents 60% growth inhibition. […]
About 83,000 compounds went through this panel and 20% of them were active in at least one assay; those are over-represented in the sample as a whole.
EXPERIMENTAL ENDPOINT: growth (%)
Quick reminder: number only, in %, skip the unit.

Here is how some compounds turned out for growth.
Nc1ncnc2c1c(-c1cccc(OCc3ccccc3)c1)cn2C1CC(CN2CCC2)C1 (centres undefined); 32.1
CCOc1cc2ncc(C#N)c(Nc3ccc(F)c(Cl)c3)c2cc1NC(=O)/C=C/CN(C)C; -26.6
CCc1nc2cc(/C=C/C(=O)NO)ccc2c(=O)n1CCc1ccc(OC)cc1; 35.9

Q: What does the record list as growth for C/C(=C(/c1ccc(Cl)cc1)c1ccc(OCCN2CCCC2)cc1)c1ccccc1 ?
A: 80.7

Q: Same thing, different compound: CC(=O)CC1CCCC1c1ccc2ccccc2c1 (centres undefined)
A: 104

Q: Same thing, different compound: COc1cc2c(cc1OCCCN1Cc3ccc(OCCCCC(=O)N4CCC(CCN5CCCC5)CC4)cc3C1)N=C(N)C21CCCC1
A: 103

Q: Same thing, different compound: Cc1cc(-c2cc(OC(=O)c3ccccc3)ccc2Cl)cc2nnc(Nc3ccc(OCCN4CCCC4)cc3)nc12
A: 91.9

Q: Same thing, different compound: N#Cc1ccc(-n2nnc3ccccc32)cc1C#N
A: 112

Q: Same thing, different compound: COC1CCC(N2C(=O)CNc3ncc(-c4ccc(C(C)(C)O)nc4)nc32)CC1 (centres undefined)
A: 13.5

Q: Same thing, different compound: CCCCCC(=O)OCc1ccc(Cl)c(Cl)c1
A: 105

Q: Same thing, different compound: COc1cc2nccc(Oc3ccc(NC(=O)C4(C(=O)Nc5ccc(F)cc5)CC4)cc3)c2cc1OC
A: 29.9

Q: Same thing, different compound: Cc1cc(O)c2c(c1)C1OC(=O)CCCCCN1C1=C2C(=O)c2cccc(OC3CC(O)C(O)C(C)O3)c2C1=O (centres undefined)
A: 97.1

Q: Same thing, different compound: COc1cc2ncnc(Nc3cccc(Cl)c3F)c2cc1OC(=O)N1CCN(C)C[C@H]1C
A: 83.4

Q: Same thing, different compound: Nc1c(C(=O)c2ccccc2)sc2nc(-c3cccs3)ccc12
A: 36.1

Q: Same thing, different compound: Cc1[nH]n(C(N)=S)c(=O)c1N=Nc1ccc(S(=O)(=O)Nc2ccncn2)cc1
A: 99.8

Q: Same thing, different compound: CN1CCN(c2nc(NCCNc3ccnc4cc(Cl)ccc34)c3ccccc3n2)CC1
A: 34.8

Q: Same thing, different compound: CC(N)C(Cc1ccc(Cl)cc1)c1ccc(Cl)cc1 (centres undefined)
A: 82.4
